Some binders, each annotated with its measured Average IC50 (nM) Cyno IL-12, PHA blast IFN-γ assay.
Molecular target: T1, recombinant purified cyno IL-12 p70 (cynomolgus monkey)
T1 chain 1: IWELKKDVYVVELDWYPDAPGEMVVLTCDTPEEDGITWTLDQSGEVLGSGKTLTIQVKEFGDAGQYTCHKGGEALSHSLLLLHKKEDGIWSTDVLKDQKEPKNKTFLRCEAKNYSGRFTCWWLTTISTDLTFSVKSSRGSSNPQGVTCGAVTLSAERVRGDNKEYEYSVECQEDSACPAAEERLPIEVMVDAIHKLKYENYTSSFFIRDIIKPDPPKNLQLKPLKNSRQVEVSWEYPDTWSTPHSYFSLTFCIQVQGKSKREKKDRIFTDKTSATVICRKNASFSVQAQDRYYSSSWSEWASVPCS
T1 chain 2: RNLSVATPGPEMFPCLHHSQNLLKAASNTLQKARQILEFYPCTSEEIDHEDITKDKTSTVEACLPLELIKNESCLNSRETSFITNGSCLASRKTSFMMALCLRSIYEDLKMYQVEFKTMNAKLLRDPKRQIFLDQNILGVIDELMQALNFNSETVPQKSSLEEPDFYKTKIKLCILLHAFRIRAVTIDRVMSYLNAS
Test: cell-based or functional assay
Answer with a number only, understood to be in nM.

| binder | quantitative.readout |
| --- | --- |
| chimeric anti-human IL-12p40 antibody 1A6-Chim (antibody, human IgG1, kappa, L234A L235A, V domains shown) VH: QVTLKESGPGILKPSQTLSLTCSFSGFSLSTSGMGVSWIRQPSGKGLEWLAHIWWDGDNYYNPSLKSQLTISKDTSRNQVFLRIATVDTADTATYYCARRTRVNYAMDYWGQGTSVTVSS VL: SVVMTQTPKFLLVSAGDRVTITCKASQSVSNDVAWFQQKPGQSPKLLIYYASNRYTGVPDRFTGSGYGTDFTFTISTVQAEDLAVYFCQQDYNSPWTFGGGTKLEIKR | 0.02 |
| chimeric anti-human IL-12p40 antibody 1D4-Chim (antibody, human IgG1, kappa, L234A L235A, V domains shown) VH: QVTLKESGPGILQPSQTLSLTCSFSGFSLRKSVMGVSWIRQPSGKGLEWLAHIYWDDDKYYNPSLKSRLTISKDPSRNQVFLKITSVDTADAATYYCTRRGIRSAMDYWGQGTSVTVSS VL: SVVMTQTPKFLLVSAGDRVTITCKASQSVSNDVAWYQQKPGQSPKLLIYYASNRYTGVPDRFTGSGYGTDFTFIISTVRAEDLAVYFCQQDYNSPWTFGGGTKLEIKR | 0.07 |
| chimeric antibody 3G7/1D4-Chim (chimeric 3G7 heavy chain with 1D4 chimeric light chain) (antibody, human IgG1, kappa, L234A L235A, V domains shown) VH: QVQLQQSGAELMKPGASVKISCKATGYTFNDYWIEWVKQRPGHGLEWIGGFSHGSGSTNYNEKFKGKATFTADSSSNTAYMQLSSLTSEDSAVYYCARRRFRGMDYWGQGTSVTVSS VL: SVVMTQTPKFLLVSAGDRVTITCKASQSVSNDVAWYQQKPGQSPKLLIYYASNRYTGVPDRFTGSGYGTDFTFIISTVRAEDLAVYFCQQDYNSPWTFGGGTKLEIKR | 0.29 |

Given the entry chimeric anti-human IL-12p40 antibody 8E1-Chim (antibody, human IgG1, kappa, L234A L235A, V domains shown) VH: EVKLVESGGGLVQPGGSRKLSCAASGFTFSDYGMVWVRQAPGKGLEWVASISSGSSNIYYADTVKGRFTISRDDPNNTLFLQMRSLRSEDTAMYYCARNPYWGQGTTLTVSS VL: DIVMTQSQKFMSTSVGDRVSVTCKASQNVGTNVAWYQQKPGQSPKGLIYSASHRYSGVPDRFAGSGSGTDFTLTISNVQSEDLAEYFCQQYNSYPLTFGGGTKLELKR , report its measured Average IC50 (nM) Cyno IL-12, PHA blast IFN-γ assay.
0.15
